Provenance of the data: patent US20100111852A1

Biological target: T1, human Claudin 3 (human, UniProt O15551 1-220)
T1 construct: forced expression in DG44 or Ba/F3 cells, or endogenous on MCF7 cells; four-transmembrane tight junction protein; also called hCLDN3; hCLN3
T1 sequence: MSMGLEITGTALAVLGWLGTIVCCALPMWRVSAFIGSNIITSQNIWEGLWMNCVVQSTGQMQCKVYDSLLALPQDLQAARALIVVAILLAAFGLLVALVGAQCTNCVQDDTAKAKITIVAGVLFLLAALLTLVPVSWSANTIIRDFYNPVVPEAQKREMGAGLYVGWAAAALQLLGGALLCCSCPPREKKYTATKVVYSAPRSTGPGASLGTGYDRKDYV
Test: flow cytometry, hCLDN3/Ba/F3 cells, 2 ug/mL antibody
property name: X geometric mean
# print the numeric value only

Look up X geometric mean for this binder: CDN16 (antibody, mouse IgG2b, kappa, V domains shown, mouse monoclonal, IgG2b/IgK) VH: EVQLQQSGPELVKPGASVKMSCKASGYTFTDYYMNWVKQSHGKSLEWIGRVNPSNGGTSYNQKFKGKATLTVDKSLSTAYMQLNSLTSEDSAVYYCARGLAYYSNSFVYWGQGTLVTVSA VL: KIVLTQSPASLAVSLRQRATISCRASESVDSYGNSFMHWYQQKPGQPPKLLIYRASNLESGVPARFSGSGSRTDFTLTIDPVEADDAATYYCQQNNEDPWTFGGGTKLEIKR
1980

Entry CDN27 (antibody, V domains shown, mouse monoclonal, IgG2a/IgK) VH: EVQLQQSGPELVKPGASVKISCKASGYSFTGYFMNWVKQSHGKSLEWIGRINPYNGDTFYNQKFKGKATLTVDKSSSTAHMELRSLTSEDSAVYYCARSGDWYFDVWGAGTTVTVSS VL: DIVLTQSPASLAVSLGQRATISCRASKSVSTSSYSYMHWYQQKPGQPPKLLIKFASYLESGVPARFSGSGSGTDFTLNIHPVEEEDAATYYCQHSREFPRTFGGGTKLEIKR has what X geometric mean?
3340
